system: HL60 (Human promyelocytic leukemia cells); assay: MTT cell proliferation assay in HL60 cell line; type: cell-based; settings: HL-60, treated 72 hr or 96 hr
pIC50: −log10 of the molar value.
Result type: pIC50

>  <Molecule>
O=c1c(S(=O)(=O)N2CCCCC2)cn(-c2nccs2)c2nc(N3CCOCC3)ccc12

>  <Result type>
pIC50

>  <Reported result>
< 5.00

$$$$
>  <Molecule>
C[C@@H]1CN(c2cnc3c(=O)c(C(=O)O)cn(-c4nccs4)c3n2)CCN1

>  <Result type>
pIC50

>  <Reported result>
< 5.00

$$$$
>  <Molecule>
C[C@@H]1CN(c2ccc3c(=O)c(S(=O)(=O)N4CCCCC4)cn(-c4nccs4)c3n2)CCN1

>  <Result type>
pIC50

>  <Reported result>
> 5.52

$$$$
>  <Molecule>
CCN1CCN(c2cnc3c(=O)c(C(=O)O)cn(-c4nccs4)c3n2)CC1

>  <Result type>
pIC50

>  <Reported result>
< 5.00

$$$$
>  <Molecule>
CN(C)[C@@H]1CCN(c2cnc3c(=O)c(C(=O)O)cn(-c4nccs4)c3n2)C1

>  <Result type>
pIC50

>  <Reported result>
< 5.00

$$$$
>  <Molecule>
O=c1c(S(=O)(=O)N2CCCCC2)cn(-c2nccs2)c2nc(N3CCC(O)C3)ccc12 (stereo not drawn)

>  <Result type>
pIC50

>  <Reported result>
< 5.00

$$$$
>  <Molecule>
CN(C)[C@@H]1CCN(c2ccc3c(=O)c(S(=O)(=O)N(C)C)cn(-c4nccs4)c3n2)C1

>  <Result type>
pIC50

>  <Reported result>
5.00 to 5.52

$$$$
>  <Molecule>
C[C@@H]1CN(c2cnc3c(=O)c(C(=O)O)cn(-c4nccs4)c3n2)C[C@H](C)N1

>  <Result type>
pIC50

>  <Reported result>
< 5.00

$$$$
>  <Molecule>
O=c1c(S(=O)(=O)N2CCCCC2)cn(-c2nccs2)c2nc(N3CCC(N4CCCC4)CC3)ccc12

>  <Result type>
pIC50

>  <Reported result>
> 5.52

$$$$
